# EXPERIMENTAL_SYSTEM: human recombinant dopamine D3 receptor (Homo sapiens (Human), UniProt P35462)
# Sequence (P35462 whole entry): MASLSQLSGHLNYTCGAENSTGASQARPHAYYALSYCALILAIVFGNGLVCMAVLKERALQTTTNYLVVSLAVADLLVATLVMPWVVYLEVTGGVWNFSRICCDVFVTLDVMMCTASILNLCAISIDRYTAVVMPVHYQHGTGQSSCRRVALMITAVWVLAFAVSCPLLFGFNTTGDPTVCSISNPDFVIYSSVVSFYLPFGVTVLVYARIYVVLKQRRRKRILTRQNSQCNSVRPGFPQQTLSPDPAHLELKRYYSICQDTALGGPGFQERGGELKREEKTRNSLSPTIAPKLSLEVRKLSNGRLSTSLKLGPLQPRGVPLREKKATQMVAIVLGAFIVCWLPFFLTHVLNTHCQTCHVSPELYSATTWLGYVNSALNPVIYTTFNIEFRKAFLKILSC
# ASSAY_EXPLANATION: Test of binding inhibition for the human dopamine D3 receptor ([3H]-Metylspiperone SPA binding)
# SETTINGS: [3H]-Metylspiperone 2 nM, Jump-In HEK cell membranes, read-out: hD3_Ki
pKi: −log10 of the molar value.
// label = label 1 if pKi is not less than 9, otherwise label 0

Here are 3 compounds together with their reported answers.
{"columns": ["COMPOUND", "EXPERIMENTAL_SYSTEM", "ASSIGNED_LABEL"],
 "data": [
  ["Cn1cc2c(C(=O)N[C@H]3CC[C@H](CCN4CCc5sc(CCC(F)F)nc5C4)CC3)cccc2n1", "human recombinant dopamine D3 receptor (Homo sapiens (Human), UniProt P35462)", "label 1"],
  ["Cc1nc(CC(=O)N[C@H]2CC[C@H](CCN3CCc4nc(CCC(F)(F)F)sc4CC3)CC2)no1", "human recombinant dopamine D3 receptor (Homo sapiens (Human), UniProt P35462)", "label 0"],
  ["CCn1c(C(=O)N[C@H]2CC[C@H](CCN3CCc4sc(CCC(F)(F)F)nc4C3)CC2)cccc1=O", "human recombinant dopamine D3 receptor (Homo sapiens (Human), UniProt P35462)", "label 1"]
]}

Record `Cc1nnc(CC(=O)N[C@H]2CC[C@](F)(CCN3CCc4ccc(OCC(F)(F)F)nc4CC3)CC2)o1` ; criterion: pKi no lower than 9. Met?
label 1

Also `CC(F)(F)COc1nc2c(s1)CCN(CC[C@H]1CC[C@H](NC(=O)c3cccc4ncccc34)CC1)C2` ?
label 1

Also CC(Oc1nc2c(s1)CCN(CC[C@H]1CC[C@H](NC(=O)c3cccc4c3CN(C)C4=O)CC1)CC2)C(F)(F)F (some centres unmarked) ?
label 1

Also `CC(=O)N[C@H]1CC[C@H](CCN2CCc3nc(OCC(C)(F)F)sc3CC2)CC1` ?
label 1

Also `Cn1cc(CC(=O)N[C@H]2CC[C@H](CCN3CCc4nc(OCC(F)(F)F)sc4CC3)CC2)cn1` ?
label 1

Also `O=C(N[C@H]1CC[C@H](CCN2CCc3nc(OCC(F)F)ncc3C2)CC1)c1cccc2ncccc12` ?
label 0

Also `Cc1nc(CC(=O)N[C@H]2CC[C@H](CCN3CCc4ccc(OCC(F)(F)F)nc4CC3)OC2)no1` ?
label 1

###

Overview of recorded Ki for various compounds
# EXPERIMENTAL_SYSTEM: human recombinant dopamine D2 receptor (Homo sapiens (Human), UniProt P14416)
# Sequence (P14416 whole entry): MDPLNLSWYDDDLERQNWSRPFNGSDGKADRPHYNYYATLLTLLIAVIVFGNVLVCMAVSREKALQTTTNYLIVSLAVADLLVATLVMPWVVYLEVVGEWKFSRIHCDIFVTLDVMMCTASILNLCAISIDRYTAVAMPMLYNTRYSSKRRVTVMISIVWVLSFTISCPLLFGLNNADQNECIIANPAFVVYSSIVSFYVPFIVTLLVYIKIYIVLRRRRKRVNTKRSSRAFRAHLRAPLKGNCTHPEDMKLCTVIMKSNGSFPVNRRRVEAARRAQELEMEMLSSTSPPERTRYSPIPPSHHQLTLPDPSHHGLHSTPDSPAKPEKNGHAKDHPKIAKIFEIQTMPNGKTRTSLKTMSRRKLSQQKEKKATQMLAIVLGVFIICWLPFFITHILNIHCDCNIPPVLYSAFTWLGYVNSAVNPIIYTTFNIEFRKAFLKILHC
# ASSAY_EXPLANATION: Test of binding inhibition for the human dopamine D2 receptor ([3H]-Metylspiperone SPA binding)
# SETTINGS: [3H]-Metylspiperone 1.2 nM, Jump-In HEK cell membranes, read-out: hD2_Ki

Reference set (2 entries):
{"columns": ["SMILES_ENTRY", "Ki"],
 "data": [
  ["Cn1cc2c(C(=O)N[C@H]3CC[C@H](CCN4CCc5ccc(C6CC6)nc5CC4)CC3)cccc2n1", "> 1.8 µM"],
  ["Cc1cc(CC(=O)N[C@H]2CC[C@H](CCN3CCc4nc(OCC(F)(F)F)sc4CC3)OC2)on1", "> 1.7 µM"]
]}

Please tell me: Ki of `O=C(N[C@H]1CC[C@H](CCN2CCc3cn(Cc4ccccc4)nc3C2)CC1)c1cccc2ncccc12` , system human recombinant dopamine D2 receptor (Homo sapiens (Human), UniProt P14416)?
> 1.7 µM

###

# EXPERIMENTAL_SYSTEM: human recombinant dopamine D2 receptor (Homo sapiens (Human), UniProt P14416)
# ASSAY_EXPLANATION: Test of binding inhibition for the human dopamine D2 receptor ([3H]-Metylspiperone SPA binding)
# SETTINGS: [3H]-Metylspiperone 1.2 nM, Jump-In HEK cell membranes, read-out: hD2_Ki
QUANTITY_MEASURED: Ki (nM)
Numbers only here, please. The scale is nM.

Reference set (6 entries):
{"columns": ["COMPOUND", "QUANTITY_MEASURED", "UNIT_ANNOTATION", "QUANTITATIVE_READOUT"],
 "data": [
  ["CC(Oc1nc2c(s1)CCN(CC[C@H]1CC[C@H](NC(=O)c3cccc4c3CN(C)C4=O)CC1)CC2)C(F)(F)F (stereo partly drawn) [III-064]", "Ki", "nM", 640],
  ["Cc1ncc(CC(=O)N[C@H]2CC[C@H](CCN3CCc4nc(OCC(F)(F)F)sc4CC3)CC2)o1 [II-085]", "Ki", "nM", 740],
  ["Cn1cc2c(C(=O)N[C@H]3CC[C@H](CCN4CCc5sc(OCC(F)(F)F)nc5C4)CC3)cccc2n1 [III-464]", "Ki", "nM", 580],
  ["O=C(N[C@H]1CO[C@H](CCN2CCc3sc(OCC(F)(F)F)nc3C2)OC1)OCc1ccccc1 [III-659]", "Ki", "nM", 1500],
  ["Cc1ncc(OCC(=O)N[C@H]2CC[C@](F)(CCN3CCc4ccc(OCC(F)(F)F)nc4CC3)CC2)cn1 [III-088]", "Ki", "nM", 310],
  ["Cc1ncc(CC(=O)N[C@H]2CC[C@H](CCN3CCc4sc(OCC(F)F)nc4C3)CC2)s1 [Compound I-107]", "Ki", "nM", 370]
]}

Request the reported Ki associated with Cn1cc2c(C(=O)N[C@H]3CC[C@H](CCN4CCc5ccc(OCC(F)(F)F)nc5CC4)OC3)cccc2n1 [II-087]
260

Also Cc1nnc(CC(=O)N[C@H]2CC[C@](F)(CCN3CCc4nc(OCC(F)(F)F)sc4CC3)CC2)s1 [III-269] ?
290

Also Cn1ncc(CC(=O)N[C@H]2CC[C@H](CCN3CCc4sc(OCC(C)(F)F)nc4C3)CC2)c1F [III-548] ?
830

###

Overview of recorded pKi for various molecules
# EXPERIMENTAL_SYSTEM: human recombinant dopamine D2 receptor (Homo sapiens (Human), UniProt P14416)
# ASSAY_EXPLANATION: Test of binding inhibition for the human dopamine D2 receptor ([3H]-Metylspiperone SPA binding)
# SETTINGS: [3H]-Metylspiperone 1.2 nM, Jump-In HEK cell membranes, read-out: hD2_Ki
# Method: Cell membranes: Jump-In HEK cell membranes expressing human recombinant dopamine D2 receptor (2 μg/well) […] 225 nL of the solutions of the non-specific ligand or the compounds of the present invention at each concentration (in case of vehicle, final concentration 0.3% DMSO) were added in each well of a 384-well white/clear bottom microplate (3706, Corning). […] Non-specific binding was calculated based on the radioactivity of [^3H]-Metylspiperone in the presence of 10 μM non-labeled Butaclamol. […]
pKi: −log10 of the molar value.

Reference set (2 entries):
{"columns": ["SMILES_ENTRY", "pKi"],
 "data": [
  ["Cc1cc(OCC(=O)N[C@H]2CC[C@H](CCN3CCc4ccc(OCC(F)(F)F)nc4CC3)CC2)no1", "< 5.74"],
  ["Cn1cc2c(C(=O)N[C@H]3CC[C@H](CCN4CCc5ccc(OCC(F)F)nc5CC4)CC3)cccc2n1", "< 5.77"]
]}

Turning now to a further record.
Request the reported pKi associated with `Cc1cc(OCC(=O)N[C@H]2CC[C@](F)(CCN3CCc4ccc(OCC(F)(F)F)nc4CC3)CC2)no1`
< 5.77

###

# EXPERIMENTAL_SYSTEM: human recombinant dopamine D2 receptor (Homo sapiens (Human), UniProt P14416)
# ASSAY_EXPLANATION: Test of binding inhibition for the human dopamine D2 receptor ([3H]-Metylspiperone SPA binding)
# SETTINGS: [3H]-Metylspiperone 1.2 nM, Jump-In HEK cell membranes, read-out: hD2_Ki
QUANTITY_MEASURED: Ki

Reference set (7 entries):
{"columns": ["COMPOUND", "RESULT"],
 "data": [
  ["Cn1cc2c(C(=O)N[C@H]3CC[C@H](CCN4CCc5sc(CCC(C)(F)F)nc5C4)CC3)cccc2n1", "920 nM"],
  ["Cn1cc(CC(=O)N[C@H]2CC[C@H](CCN3CCc4ccc(OCC(F)(F)F)nc4CC3)OC2)cn1", "640 nM"],
  ["CN1Cc2c(C(=O)N[C@H]3CC[C@H](CCN4CCc5ccc(OCC(C)(F)F)nc5CC4)CC3)cccc2C1=O", "140 nM"],
  ["Cc1nc(CC(=O)N[C@H]2CC[C@H](CCN3CCc4sc(N5CC(F)(F)C5)nc4C3)CC2)no1", "1100 nM"],
  ["Cc1ncc(CC(=O)N[C@H]2CC[C@H](CCN3CCc4ccc(OCC(C)F)nc4CC3)CC2)s1 (some centres unmarked)", "1400 nM"],
  ["Cn1cc2c(C(=O)N[C@H]3CC[C@H](CCN4CCc5ccc(OCC(C)(F)F)nc5CC4)CC3)cccc2n1", "330 nM"],
  ["Cn1cc(/C=C/C(=O)N[C@H]2CC[C@H](CCN3CCc4nc(OCC(F)(F)F)sc4CC3)CC2)cn1", "44 nM"]
]}

Turning now to a further record.
Request the reported Ki associated with `Cc1nc(/C=C/C(=O)N[C@H]2CC[C@H](CCN3CCc4sc(N5CC(F)(F)C5)nc4C3)CC2)cs1`
290 nM
